effect on methanogenesis (%) listing for selected compounds.
- System: methanogenesis in rumen liquor
- assay.details: In vitro test for methane production (modified Hohenheim Forage value Test)
- applied.conditions: 0.1% DM; 8 h, 39° C.; average of two experiments; vs control
assay.endpoint: effect on methanogenesis (%)

>>> measured_number("O=C(O)CCCCCCCO[N+](=O)[O-]")
"−100"
>>> measured_number("CCOC(=O)CCO[N+](=O)[O-] [drawing 19]")
"−63"
>>> measured_number("O=C(O)CCO[N+](=O)[O-]")
"−100"
>>> measured_number("NC(=O)CCCCO[N+](=O)[O-] [drawing 36]")
"−99"
>>> measured_number("O=C(O)CCCCO[N+](=O)[O-]")
"−100"
>>> measured_number("CCOC(=O)C1CCC(O[N+](=O)[O-])CC1 (stereo not shown)")
"−88"
>>> measured_number("CCOC(=O)CO[N+](=O)[O-]")
"−1"
>>> measured_number("CCOC(=O)CCCO[N+](=O)[O-]")
"−82"
>>> measured_number("CCOC(=O)CCCCCCCCCCO[N+](=O)[O-]")
"−99"
>>> measured_number("CNC(=O)CCCCO[N+](=O)[O-] [drawing 37]")
"−100"
